assay: chemical genetic growth profiling, strain panel (AID 1159580);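 further: tested at 20 µM; growth read once vehicle control cultures reached saturation at 30 °C; 1 = growth at the plate median or of vehicle wells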; conditions: S. cerevisiae deletion strains, growth OD, locus YLR320W, strain mms22, hits give low values
Hit rate of the full screen: of about 5,500 compounds, about 2,000 (36%) were called active. Not shown: some 18% with an inconclusive outcome. The list shows a part of the results.
Labelling field: enter T if recorded normalized growth is less than 1. Enter F if it equals or exceeds that cut-off.

Input line: Determine if Nc1ccn(C2O[C@H](CO)[C@@H](O)[C@@H]2O)c(=O)n1 (stereo not given in full) shows normalized growth strictly lower than 1.
Output line: F

Input line: Given CO/N=C(\C(=O)NC1C(=O)N2C(C(=O)O)=C(COC(N)=O)CSC12)c1ccco1 (stereo not given) , is recorded normalized growth strictly lower than 1?
Output line: T

Input line: Identify whether the compound `CO/N=C(\C(=O)N[C@@H]1C(=O)N2C(C(=O)O)=C(CSc3nc(=O)c(O)nn3C)CS[C@H]12)c1csc(N)n1` records normalized growth below 1.
Output line: T

Input line: normalized growth under 1? Item: `CO/N=C(\C(=O)N[C@@H]1C(=O)N2C(C(=O)O)=C(COC(C)=O)CS[C@H]12)c1csc(N)n1`
Output line: T

====

experiment: chemical genetic growth profiling, strain panel (AID 1159580);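 further: tested at 20 µM; growth read once vehicle control cultures reached saturation at 30 °C; 1 = growth at the plate median or of vehicle wells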; settings: S. cerevisiae deletion strains, growth OD, locus YLR357W, strain rsc2, hits give low values
Structures can show the parent of a compound that is named as a salt. Among all 5,500 compounds or so, about 2,000 (36%) were called active. About 18% were inconclusive and are not listed. The list shows a part of the results. Where a SMILES comes first, the peptide text is derived from it. The star is where a group is joined. Tfa = O=C(C(F)(F)F)*
Give normalized growth for every item shown.
Number only, please.

Input line: Return normalized growth (reported value) for this molecule: `CC(C)C(=O)Nc1ccc([N+](=O)[O-])c(C(F)(F)F)c1`
Output line: 1.09

Input line: Note normalized growth for the molecule shown: C#CCCCCCCCCCCCC(O)CC(O)COC(C)=O (configuration not stated)
Output line: 0.958

Input line: Fill in normalized growth for record `CCOC(=O)c1ccc(O)cc1`
Output line: 1.03

Input line: Provide only the value of recorded normalized growth for `CC(=O)OCC[C@H](C)CCC=C(C)C`
Output line: 0.981

Input line: Supply reported normalized growth belonging to this molecule: CC[C@H](C)C(=O)O[C@H]1CCC=C2C=C[C@H](C)C(CCC3C[C@@H](O)CC(=O)O3)[C@H]21 (some centres not stated)
Output line: 1.01

Input line: Tell me measured normalized growth for CC(C)C(NC(=O)C(Cc1ccc(O)cc1)NC(=O)C(NC(=O)C(F)(F)F)C(C)C)C(=O)O (stereo not drawn) (Tfa-Val-Tyr-Val-OH; configuration not given here) please.
Output line: 0.951

Input line: Look up and state reported normalized growth for CCC(C)C(=O)O[C@H]1C[C@H](O)C=C2C=C[C@H](C)[C@H](CC[C@@H](O)C[C@@H](O)CC(=O)O)C21 (some centres not stated)
Output line: 1

Input line: Tell me measured normalized growth for `Cn1c(=O)c2[nH]cnc2n(C)c1=O` please.
Output line: 1.01

Input line: Supply normalized growth value. Item: `COc1cc2occ(-c3ccccc3)c(=O)c2c(OC)c1C`
Output line: 0.97

Input line: Give the reported normalized growth for this molecule. `COc1c(OC)c2occc2c2oc(=O)ccc12`
Output line: 1.01

Input line: Specify normalized growth for `CCC(C)(C)C(=O)O[C@H]1C[C@@H](C)C=C2C=C[C@H](C)[C@H](CC[C@@H]3C[C@@H](O)CC(=O)O3)[C@H]21` and stop.
Output line: 1.01

Input line: Identify measured normalized growth associated with `CC(C)NC[C@H](O)COc1cccc2ccccc12`
Output line: 0.978

Input line: Return normalized growth (reported value) for this molecule: C#CCCCCCCCCCCCC(=O)CC(O)COC(C)=O (configuration not stated)
Output line: 1.01

Input line: Let me know recorded normalized growth for CC(=O)OCC(OC(C)=O)C(OC(C)=O)C(OC(C)=O)C(OC(C)=O)C(COC(C)=O)OC(C)=O (configuration not stated) , thanks.
Output line: 0.982

Input line: Report normalized growth, nothing else, for this molecule: CC(C)NCC(O)COc1cccc2ccccc12 (configuration not stated)
Output line: 1.07

Input line: Indicate the recorded normalized growth value for this molecule: `COc1cc(OC)c2c(=O)c(-c3ccccc3)coc2c1`
Output line: 1.03

Input line: Check the records and state normalized growth for `Cc1cccc(C)c1NC1=NCCCS1`
Output line: 0.999

Input line: Please list normalized growth recorded for the molecule `COc1c2ccoc2c(OC)c2oc(=O)ccc12`
Output line: 1.06

Input line: Give recorded normalized growth. O=C1CC2OCC=C3CN4CC[C@]56c7ccccc7N1C5[C@H]2[C@H]3CC46 (some centres not stated)
Output line: 1.03

Input line: Tell us which normalized growth value is on record for CC1C[C@H]2CC(=O)[C@H]3CCCN4CCC[C@H]2[C@]34C1 (some centres not stated)
Output line: 0.995

Input line: Tell us which normalized growth value is on record for `COc1ccc(-c2coc3cc(OC)cc(OC)c3c2=O)cc1`
Output line: 0.988

Input line: Please supply the value of reported normalized growth for the item CC1=CC2C(CC1=O)C(C)=CCC2C(C)C (configuration not stated)
Output line: 1.03
